Cited source for all entries: patent US10723711B2

Molecular target: human recombinant FAAH (Homo sapiens)
Sequence (O00519 1-579): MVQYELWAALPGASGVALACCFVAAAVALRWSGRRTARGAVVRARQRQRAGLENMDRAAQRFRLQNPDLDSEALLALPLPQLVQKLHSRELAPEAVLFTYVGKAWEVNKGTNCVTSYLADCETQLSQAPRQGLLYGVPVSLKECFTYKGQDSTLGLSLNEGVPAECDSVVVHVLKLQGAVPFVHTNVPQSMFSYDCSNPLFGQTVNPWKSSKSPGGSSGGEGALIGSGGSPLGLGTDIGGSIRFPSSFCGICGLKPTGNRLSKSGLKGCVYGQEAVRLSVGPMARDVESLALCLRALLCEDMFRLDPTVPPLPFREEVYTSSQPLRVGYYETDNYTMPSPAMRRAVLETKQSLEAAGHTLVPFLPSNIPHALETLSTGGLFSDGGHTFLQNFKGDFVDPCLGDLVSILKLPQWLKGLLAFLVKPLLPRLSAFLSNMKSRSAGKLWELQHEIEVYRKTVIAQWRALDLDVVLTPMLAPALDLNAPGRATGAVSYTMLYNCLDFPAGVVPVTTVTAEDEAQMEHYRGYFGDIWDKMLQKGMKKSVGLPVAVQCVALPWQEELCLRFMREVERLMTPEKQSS
Experiment: FAAH inhibition enzymatic assay, fluorescent substrate Arachidonoyl-AMC, 30 minute incubation
Conditions: T = 30 min (30 minute incubation); geometric mean of 2-4 determinations unless otherwise indicated

# COMPOUND, IC50
rows = [
    ("O=C(O[C@H](CO)C(F)(F)F)N1CCC2(CC1)CC(N1CCc3ccccc3S1(=O)=O)CO2 (mixture of isomers)", "17.4 µM"),
    ("O=C(O[C@H](CO)C(F)(F)F)N1CCC2(CC1)CCN(C(=O)c1ccccc1)C2", "> 30 µM"),
    ("O=C(O[C@H](CO)C(F)(F)F)N1CCC2(CC1)CC(c1ccccc1)CO2 (single isomer, unassigned) [Example 95]", "8.72 µM"),
    ("CN(C(=O)c1ccccc1)C1COC2(CCN(C(=O)O[C@H](CO)C(F)(F)F)CC2)C1 (single isomer, unassigned) [Example 100]", "> 28.7 µM"),
    ("O=C(O[C@H](CO)C(F)(F)F)N1CCC2(CC1)CN(S(=O)(=O)c1cccc(Cl)c1)CCO2", "> 30 µM"),
    ("O=C(OC(C(F)(F)F)C(F)(F)CO)N1CCC2(CC1)CN(S(=O)(=O)c1ccc(F)cc1)CCO2 (racemic) [Example 19]", "> 30 µM"),
    ("CN([C@H]1COC2(CCN(C(=O)O[C@H](CO)C(F)(F)F)CC2)C1)S(=O)(=O)C1CC1", "> 30 µM"),
    ("CC(c1ccc(F)cc1)N1CCOC2(CCN(C(=O)O[C@H](CO)C(F)(F)F)CC2)C1 (single isomer, unassigned) [Example 44]", "> 30 µM"),
    ("CCN([C@H]1COC2(CCN(C(=O)O[C@H](CO)C(F)(F)F)CC2)C1)S(=O)(=O)c1ccccc1", "> 30 µM"),
    ("O=C(O[C@H](CO)C(F)(F)F)N1CCC2(CC1)C[C@@H](NS(=O)(=O)c1ccccc1)CO2", "> 30 µM"),
    ("O=C(O[C@H](CO)C(F)(F)F)N1CCC2(CC1)CC(c1cccc(OC(F)(F)F)c1)CO2 (mixture of isomers)", "> 24.8 µM"),
    ("CC(c1ccc(F)cc1)N1CCOC2(CCN(C(=O)O[C@H](CO)C(F)(F)F)CC2)C1 (single isomer, unassigned) [Example 45]", "> 30 µM"),
    ("O=C(O[C@H](CO)C(F)(F)F)N1CCC2(CC1)CC(N1Cc3ccccc3S1(=O)=O)CO2 (mixture of isomers)", "6.54 µM"),
    ("CC(C)N([C@H]1COC2(CCN(C(=O)O[C@H](CO)C(F)(F)F)CC2)C1)S(=O)(=O)c1ccccc1", "> 30 µM"),
    ("O=C(O[C@H](CO)C(F)(F)F)N1CCC2(CCCN(S(=O)(=O)c3ccc(F)cc3)C2)CC1", "> 30 µM"),
    ("CC(c1ccc(F)cc1)N1CCOC2(CCN(C(=O)O[C@H](CO)C(F)(F)F)CC2)C1 (mixture of isomers) [Example 43]", "> 30 µM"),
    ("O=C(O[C@H](CO)C(F)(F)F)N1CCC2(CC1)CCN(C(=O)C1CCC(F)(F)CC1)C2", "> 30 µM"),
    ("O=C(O[C@H](CO)C(F)(F)F)N1CCC2(CC1)CN(S(=O)(=O)c1cccc(F)c1)CCO2", "> 30 µM"),
    ("CN(C1COC2(CCN(C(=O)O[C@H](CO)C(F)(F)F)CC2)C1)S(=O)(=O)c1cccnc1 (mixture of isomers)", "> 30 µM"),
    ("O=C(O[C@H](CO)C(F)(F)F)N1CCC2(CC1)CC(c1ccc(F)nc1)CO2 (mixture of isomers)", "> 30 µM"),
    ("O=C(O[C@H](CO)C(F)(F)F)N1CCC2(CC1)CN(S(=O)(=O)c1ccccc1F)CCO2", "19.2 µM"),
    ("O=C(O[C@H](CO)C(F)(F)F)N1CCC2(CC1)CN(S(=O)(=O)c1ccccc1)CCO2", "> 24.1 µM"),
    ("C#Cc1ccc(-n2ccc([C@H]3[C@@H]4CN(C(=O)O[C@H](CO)C(F)(F)F)C[C@@H]43)n2)cc1", "7.54 µM"),
    ("CC(C)CS(=O)(=O)N(C)[C@H]1COC2(CCN(C(=O)O[C@H](CO)C(F)(F)F)CC2)C1", "> 30 µM"),
    ("O=C(O[C@H](CO)C(F)(F)F)N1CCC2(CC1)CN(S(=O)(=O)c1ccc(F)c(F)c1)CCO2", "> 30 µM"),
    ("CN(C1COC2(CCN(C(=O)O[C@H](CO)C(F)(F)F)CC2)C1)S(=O)(=O)C1CCCC1 (mixture of isomers)", "> 30 µM"),
    ("CN(C1COC2(CCN(C(=O)O[C@H](CO)C(F)(F)F)CC2)C1)S(=O)(=O)c1cccc(F)c1 (single isomer, unassigned) [Example 108]", "10.7 µM"),
    ("O=C(O)C(F)(F)F.O=C(O[C@H](CO)C(F)(F)F)N1CCC(Oc2nccc3ccccc23)CC1 [Example 26, trifluoroacetic acid salt]", "7.73 µM"),
]
